Below, each of the compounds is paired with its reported inhibition at 20 µM value.
- STUDY TARGET: human recombinant caspase-3 enzyme (Homo sapiens)
- Construct: each cDNA encoding p12 and p17 subunits of caspase-3 was PCR-amplified respectively and subcloned into a pET3-a expression vector; made in house; host or cells: E. coli BL21 (DE3), pET3-a vector
- PROTOCOL DETAILS: Enzyme assay of caspase-3 inhibition (fluorogenic Ac-DEVD-AFC substrate)
- Format: biochemical
- CONDITION SET: caspase-3 activity, at 20 uM
MEASUREMENT TYPE: inhibition at 20 µM (%)

{"SMI": "CCOC(=O)c1cnc2c(N)cccc2c1NCc1ccc2c(c1)OCO2", "STUDY TARGET": "human recombinant caspase-3 enzyme (Homo sapiens)", "NUMERIC VALUE": 86}
{"SMI": "CCCNc1c(C(=O)OCC)cnc2c(N)cccc12", "STUDY TARGET": "human recombinant caspase-3 enzyme (Homo sapiens)", "NUMERIC VALUE": 85}
{"SMI": "CCOC(=O)c1cnc2c(N)cccc2c1NCCCOC(C)C", "STUDY TARGET": "human recombinant caspase-3 enzyme (Homo sapiens)", "NUMERIC VALUE": 92.5}
{"SMI": "CCOC(=O)c1cnc2c(N)cccc2c1NC1CCCCC1", "STUDY TARGET": "human recombinant caspase-3 enzyme (Homo sapiens)", "NUMERIC VALUE": 84.7}
{"SMI": "CCOC(=O)c1cnc2c(N)cccc2c1NCc1cccc(OC)c1", "STUDY TARGET": "human recombinant caspase-3 enzyme (Homo sapiens)", "NUMERIC VALUE": 83.9}

---

Below, each of the compounds is paired with its reported inhibition at 20 µM value.
- STUDY TARGET: human recombinant caspase-3 enzyme (Homo sapiens)
- Construct: each cDNA encoding p12 and p17 subunits of caspase-3 was PCR-amplified respectively and subcloned into a pET3-a expression vector; made in house; host or cells: E. coli BL21 (DE3), pET3-a vector
- PROTOCOL DETAILS: Enzyme assay of caspase-3 inhibition (fluorogenic Ac-DEVD-AFC substrate)
- Type: biochemical
- CONDITION SET: caspase-3 activity, at 20 uM

{"SMI": "CCOC(=O)c1cnc2c(N)cccc2c1NCc1ccc(Cl)cc1", "inhibition at 20 µM": "82.9%"}
{"SMI": "CCOC(=O)c1cnc2c(N)cccc2c1NCCCc1ccccc1", "inhibition at 20 µM": "78.8%"}
{"SMI": "CCOC(=O)c1cnc2c(N)cccc2c1NCCc1ccccc1N", "inhibition at 20 µM": "83.8%"}
{"SMI": "CCOC(=O)c1cnc2c(N)cccc2c1NCCCN1CCOCC1", "inhibition at 20 µM": "92.3%"}
{"SMI": "CCOC(=O)c1cnc2c(N)cccc2c1NCCCCc1ccccc1", "inhibition at 20 µM": "81.7%"}

---

- STUDY TARGET: human recombinant caspase-3 enzyme (Homo sapiens, UniProt P42574)
- Construct: each cDNA encoding p12 and p17 subunits of caspase-3 was PCR-amplified respectively and subcloned into a pET3-a expression vector; made in house; host or cells: E. coli BL21 (DE3), pET3-a vector
- Sequence (P42574 29-175 limits assumed): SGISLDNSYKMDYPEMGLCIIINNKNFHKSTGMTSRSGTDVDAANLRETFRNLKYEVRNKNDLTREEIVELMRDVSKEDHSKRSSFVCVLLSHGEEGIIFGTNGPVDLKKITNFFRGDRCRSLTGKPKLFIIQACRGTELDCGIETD
- Sequence (P42574 176-277 limits assumed): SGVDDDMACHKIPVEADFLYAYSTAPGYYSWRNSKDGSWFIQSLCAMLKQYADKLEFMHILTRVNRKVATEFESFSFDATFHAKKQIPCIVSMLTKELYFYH
- PROTOCOL DETAILS: Enzyme assay of caspase-3 inhibition (fluorogenic Ac-DEVD-AFC substrate)
- Type: biochemical
- CONDITION SET: caspase-3, Table 1; tested at 2, 20 or 200 uM; read-out: IC50

{"COMPOUND": "CCOC(=O)c1cnc2c(N)cccc2c1NC(CC)COC (centres unmarked)", "STUDY TARGET": "human recombinant caspase-3 enzyme (Homo sapiens, UniProt P42574)", "IC50 (µM)": 16.5}
{"COMPOUND": "CCOC(=O)c1cnc2c(N)cccc2c1NCc1ccccn1", "STUDY TARGET": "human recombinant caspase-3 enzyme (Homo sapiens, UniProt P42574)", "IC50 (µM)": 13.2}
{"COMPOUND": "CCOC(=O)c1cnc2c(N)cccc2c1NCCCCc1ccccc1", "STUDY TARGET": "human recombinant caspase-3 enzyme (Homo sapiens, UniProt P42574)", "IC50 (µM)": 16.4}
{"COMPOUND": "CCOC(=O)c1cnc2c(N)cccc2c1NCCc1ccccc1N", "STUDY TARGET": "human recombinant caspase-3 enzyme (Homo sapiens, UniProt P42574)", "IC50 (µM)": 16.2}
{"COMPOUND": "CCOC(=O)c1cnc2c(N)cccc2c1NCc1ccccc1Cl", "STUDY TARGET": "human recombinant caspase-3 enzyme (Homo sapiens, UniProt P42574)", "IC50 (µM)": 17.8}
{"COMPOUND": "CCOC(=O)c1cnc2c(N)cccc2c1NC(C)C", "STUDY TARGET": "human recombinant caspase-3 enzyme (Homo sapiens, UniProt P42574)", "IC50 (µM)": 17.6}
{"COMPOUND": "CCOC(=O)c1cnc2c(N)cccc2c1NCCc1ccccc1", "STUDY TARGET": "human recombinant caspase-3 enzyme (Homo sapiens, UniProt P42574)", "IC50 (µM)": 16.6}
{"COMPOUND": "CCOC(=O)c1cnc2c(N)cccc2c1NCc1ccc2c(c1)OCO2", "STUDY TARGET": "human recombinant caspase-3 enzyme (Homo sapiens, UniProt P42574)", "IC50 (µM)": 14.3}

---

Below, each of the compounds is paired with its reported inhibition at 20 µM value.
- STUDY TARGET: human recombinant caspase-3 enzyme (Homo sapiens)
- Construct: each cDNA encoding p12 and p17 subunits of caspase-3 was PCR-amplified respectively and subcloned into a pET3-a expression vector; made in house; host or cells: E. coli BL21 (DE3), pET3-a vector
- PROTOCOL DETAILS: Enzyme assay of caspase-3 inhibition (fluorogenic Ac-DEVD-AFC substrate)
- Assay type: biochemical
- CONDITION SET: caspase-3 activity, at 20 uM
MEASUREMENT TYPE: inhibition at 20 µM (%)

{"COMPOUND": "CCOC(=O)c1cnc2c(N)cccc2c1NCc1cccs1 [Example 21]", "UNITS TEXT": "%", "NUMERIC VALUE": 78}
{"COMPOUND": "CCOC(=O)c1cnc2c(N)cccc2c1NCc1ccccc1 [Example 17]", "UNITS TEXT": "%", "NUMERIC VALUE": 81.7}
{"COMPOUND": "CCOC(=O)c1cnc2c(N)cccc2c1NCc1ccccc1Cl [Example 41]", "UNITS TEXT": "%", "NUMERIC VALUE": 78.4}
